- Tested on: SW-620
- Test Description: NCI tumour cell line growth inhibition, 48 h
Active and inactive are the calls of the source. Cut-off read from the data, not from the text of the source: active = GI50 up to about 1.1 µM and inactive = higher.
Endpoint Name: GI50

Each compound below has a recorded value; state its GI50.
1. CC1=C(CO)C(=O)OC(C(C)C2CCC3C4CC5OC56C(O)C(N5CC5)=CC(=O)C6(C)C4CCC23C)C1 (stereo not drawn)
2. Cc1cccc(NC(=O)c2c(N)[n+]([O-])c3ccccc3[n+]2[O-])c1
3. CC1(C)C(CC(=O)O)CCCC1CC(=O)O (stereo not drawn)

A.
1: 2.56 µM (inactive); 2: 8.38 µM (inactive); 3: > 100 µM (inactive)

====

- Tested on: NCI-H23
- Test Description: NCI tumour cell line growth inhibition, 48 h
Calls of active or inactive are those of the source. Cut-off read from the data, not from the text of the source: active = GI50 up to about 1.1 µM and inactive = higher.
Would you kindly list GI50 for each of these compounds?

In the examples that follow, each entry is paired with its recorded GI50.
Q. Which GI50 value belongs to CC(C)Cc1ccc(C(C)/C=C2\CCC(CN3CCCC3)C2=O)cc1 (configuration not stated) ?
A. 11.5 µM (inactive)

Q. And CCOC(=O)C1N(S(=O)(=O)c2ccc(C)cc2)CCC12C(c1ccc(OC)c(OC)c1)=Nc1ccccc12 (configuration not stated) ?
A. > 100 µM (inactive)

Q. Also, O=c1cc(-c2ccccc2)oc2c1ccc1nc3ccccc3c(O)c12 please.
A. 89.1 µM (inactive)

Q. Now this one: C/C(=N\N)C(CN(C)C)C(c1ccccc1)c1c(O)c2ccccc2oc1=O (configuration not stated)
A. > 100 µM (inactive)

Q. Here is the next compound: Nc1nnc(NC(=O)C2=NS(=O)(=O)c3cc(S(N)(=O)=O)c(Cl)cc3N2)[nH]1
A. > 100 µM (inactive)

Q. Also CC1=N/C(=C\c2ccc(/C=C3/N=C(C)OC3=O)cc2)C(=O)O1 , if possible.
A. > 100 µM (inactive)

For each of the compounds below, state GI50.
1. CC1(c2cccc3c2C2(O)C=CC4(CCC32)OCCO4)OCCO1 (configuration not stated)
2. Cc1cn(C2CC(OP(=O)(O)OCC3OC(n4c[n+]([BH2-]C#N)c5c(=O)[nH]c(N)nc54)CC3O)C(CO)O2)c(=O)[nH]c1=O (configuration not stated)
3. COc1ccc(/C=N/n2cnc3c(sc(=S)n3-c3ccccc3)c2=O)cc1
4. Cc1cn(Cc2ccccc2CCl)c(=O)[nH]c1=O
5. COC(=O)CCCc1ccc2c(c1)CCC2
6. CC(C)CCC[C@@H](C)C1CCC2[C@@H]3CCC4CC(CCC=C(c5cc(Cl)c(OC(=O)c6ccccc6)c(C(=O)O)c5)c5cc(Cl)c(OC(=O)c6ccccc6)c(C(=O)O)c5)CC[C@]4(C)C3CC[C@@]21C (some centres not stated)
7. Nc1nc(N)c2cc(-c3ccccc3)cnc2n1
8. Nn1c(S)nnc1CCCCCCCCc1nnc(S)n1N

A.
1. > 100 µM (inactive)
2. > 100 µM (inactive)
3. 23.6 µM (inactive)
4. 10.2 µM (inactive)
5. > 100 µM (inactive)
6. > 100 µM (inactive)
7. 12.9 µM (inactive)
8. > 100 µM (inactive)

Please state, for each entry, its recorded GI50.
1. Cc1cccc(NC(=O)c2c(N)[n+]([O-])c3ccccc3[n+]2[O-])c1
2. Nc1ccc(CCN2CCN(CCCc3ccccc3)CC2)cc1

A.
1. 9.68 µM (inactive)
2. 79.4 µM (inactive)

Provide each entry's GI50 from the list below.
1. CO/N=C1\CC(NC(=O)C(F)(F)F)c2ccsc21 (configuration not stated)
2. COc1ccc(C(=O)O[C@@H]2CCN3CC[C@H](C)[C@H]23)cc1
3. Clc1ccccc1NN(Cc1ccccn1)c1ccccc1Cl
4. CC(=O)N1CC(=O)NC1=S
5. O=C(/C=C/c1ccccc1)CCN1CCN(CCC(=O)/C=C/c2ccccc2)CC1
6. CC(C)N(C(=O)c1cccc(C(=O)N(C(C)C)C(C)C)c1)C(C)C

A.
["> 100 µM (inactive)", "> 100 µM (inactive)", "20 µM (inactive)", "> 100 µM (inactive)", "16 µM (inactive)", "> 100 µM (inactive)"]

====

- Test system: UO-31
- Test Description: NCI tumour cell line growth inhibition, 48 h
Active and inactive are the calls of the source. No stated cut-off is given here; in the data, active = GI50 up to about 1.1 µM and inactive = higher.
Endpoint Name: GI50

Some solved entries appear below for comparison.
Q. If you can, please state the reported GI50 value of CCC1OC2C(CC=C(C)C)=C3OC(C)(O)C(C)(CC)C(O)C3=C3OC(=O)C=C1C32 (centres undefined) .
A. 25.4 µM (inactive)

Q. One more compound: CC(=O)OCC1OC(N2C(C)=C(C(C)=O)C(c3ccco3)C(C#N)=C2S)C(OC(C)=O)C(OC(C)=O)C1OC(C)=O (centres undefined)
A. 81.1 µM (inactive)

Q. Same for COc1ccc(C(F)(F)F)cc1NC(=O)O/N=C(/Cl)C(C)C
A. 18.5 µM (inactive)

Let's switch to this compound now.
Q. Entry CC(C)NC(=O)OCc1c(COC(=O)NC(C)C)c(-c2ccc[n+](COC(=O)CC(C)(C)C)c2)n2c1CCC2 has what GI50?
A. 93.8 µM (inactive)

====

Assignment: determine reported GI50 for the given compounds.
- System: MDA-N
- Test Description: NCI tumour cell line growth inhibition, 48 h
Structures can show the parent of a compound that is named as a salt. Calls of active or inactive are those of the source. Rule as the data show it: active = GI50 up to about 1.1 µM and inactive = higher.

Before answering, review these 2 worked examples.
Q. GET /values?readout=GI50&item= CCc1ccccc1/N=N/C(=O)NNc1ccccc1CC
A. 18.3 µM (inactive)

Q. What about this compound? OC(CNc1ccccn1)c1ccccc1 (configuration not stated) [PHENYRAMIDOL HYDROCHLORIDE]
A. > 100 µM (inactive)

Return reported GI50 values for all items listed beneath this line.
1. COc1cc(/C=C2/C[C@H]3[C@@H]4CC=C5C[C@@H](OC(C)=O)CC[C@]5(C)[C@H]4CC[C@]3(C)NC2=O)cc(OC)c1OC
2. CCOP(=O)(OCC)C(F)(F)CC1CCCCC1
3. N=C1OC(c2c[nH]c3ccc(OCc4ccccc4)cc23)C(O)=C1O (configuration not stated)
4. C#CCN1CCN(C(=S)N/N=C(\C)c2ccccn2)CC1
5. CC1=C(C)C(=O)C(C2=C(C3=CC(=O)C(C)=C(C)C3=O)C(=O)c3ccccc3C2=O)=CC1=O

A.
42.7 µM (inactive)
> 10 µM (inactive)
> 100 µM (inactive)
1.46 µM (inactive)
1.91 µM (inactive)

====

- System: EKVX
- Test Description: NCI tumour cell line growth inhibition, 48 h
Active and inactive are the calls of the source. Cut-off read from the data, not from the text of the source: active = GI50 up to about 1.1 µM and inactive = higher.
Endpoint Name: GI50

For each of the items listed, what is its GI50?
1. N#Cc1c2nc3ccccc3nc2n2ccc3ccccc3c12
2. COc1cc(OC)c2nc(C)c(CCCl)c(Cl)c2c1
3. O=[N+]([O-])c1ccc(NC2OCC(O)C(O)C2O)cc1 (stereo not drawn)
4. c1ccc2sc(SCN(C3CCCCC3)C3CCCCC3)nc2c1
5. Cn1cc(NC(=O)Nc2cc(C(=O)Nc3cc(C(=O)Nc4cc(S(=O)(=O)O)c5cc(S(=O)(=O)O)cc(S(=O)(=O)O)c5c4)n(C)c3)n(C)c2)cc1C(=O)Nc1cc(C(=O)Nc2cc(S(=O)(=O)O)c3cc(S(=O)(=O)O)cc(S(=O)(=O)O)c3c2)n(C)c1

A.
["> 100 µM (inactive)", "> 100 µM (inactive)", "> 100 µM (inactive)", "> 100 µM (inactive)", "31.9 µM (inactive)"]

List GI50 for every entry below, keeping the order given.
1. Nc1nc2c(c(=O)[nH]1)NC(CO)CN2 (stereo not drawn)
2. CCC1C(c2cc(OC)c(OC)c(OC)c2)c2cc3c(cc2OC1N1CCCC1)OCO3 (stereo not drawn)
3. O=[N+]([O-])c1ccc(/C(=N/c2ccccc2)SS/C(=N\c2ccccc2)c2ccc([N+](=O)[O-])o2)o1
4. COc1ccc(Nc2nc3c(N)cc(C(F)(F)F)cc3nc2-c2ccccc2)cc1OC
5. CCOc1cc2c(cc1OC)c[n+](C)c1c3cc(OC)c(OC)cc3ccc21

A.
["> 100 µM (inactive)", "7.28 µM (inactive)", "1.77 µM (inactive)", "18.5 µM (inactive)", "> 100 µM (inactive)"]

====

- Test system: SK-MEL-2
- Test Description: NCI tumour cell line growth inhibition, 48 h
Active and inactive are the calls of the source. No stated cut-off is given here; in the data, active = GI50 up to about 1.1 µM and inactive = higher.
Your response should consist of one outcome taken from 1.0 (active), 0.0 (inactive)

Q. Please share the test call associated with CC(C)N(C(=O)c1cccc(C(=O)N(C(C)C)C(C)C)c1)C(C)C .
A. 0.0

Q. What do we get for Nc1nc(Cl)cc(NCCCCCNc2cc(Cl)nc(N)n2)n1 ?
A. 0.0

Q. Lookup O=C1C=CC(=O)C(CNc2ccc(C(=O)OCc3ccccc3)cc2)=C1
A. 0.0

Q. COc1c(C)c2c(c3c1c(=O)c1ccccc1n3C)C=CC(C)(C)O2 ?
A. 0.0

Q. What would you report for CCN1CCN(c2nc3ccccc3nc2C(=O)c2ccc(OC)cc2)CC1 ?
A. 0.0

Next:
Q. Answer briefly: the call reported for CCOC(=O)CC(=O)ON(C)C(C)=O in this assay.
A. 0.0

Q. Same thing, different compound: COc1ccc(N(CC(=O)O)N=O)cc1
A. 0.0
